Data origin, for the record: patent US20260216347A1

- ASSAY_SYSTEM: IRAK3-ePL (Homo sapiens, UniProt Q9Y616)
- Construct: expressed in transfected cells; host or cells: 293T CRBN OE/GSPT1 G575N KI cells, lentiviral transduction, puromycin selected
- PROTOCOL_SUMMARY: IRAK3-ePL overexpressing degradation assay (InCELL Hunter luminescence, dose response)
- Assay type: cell-based
- CONDITION_INFO: lowest percentage of target protein remaining following compound treatment
So I've got a bunch of compounds here, and I need their IRAK3 ePL degradation Ymin values.
Note to self: number, then unit, no commentary.

COMPOUND	IRAK3 ePL degradation Ymin
O=C1CCC(c2ccc(N3CCN(CCN4CCC(n5cc(Nc6ncc(-c7cccc(F)c7)n7ccnc67)cn5)CC4)CC3)cc2)C(=O)N1 (stereo not drawn)	28%

Consider the following items and state reported IRAK3 ePL degradation Ymin for each.
1. Cc1cc(-c2cnc(Nc3cnn(C4CCN(CCN5[C@@H](C)CN(c6ccc(C7CCC(=O)NC7=O)cc6)C[C@@H]5C)CC4)c3)c3nccn23)c(F)cc1F (stereo partly drawn)
2. C[C@H]1CN(c2ccc(C3CCC(=O)NC3=O)cc2)CCN1CCN1CCC(n2cc(Nc3ncc(C4CC4)n4ccnc34)cn2)CC1 (stereo partly drawn)

[out]
23%
25%

Consider the following items and state reported IRAK3 ePL degradation Ymin for each.
1. Cc1cc(-c2cnc(Nc3cnn(C4CCN(CCN5CCN(c6ccc(C7CCC(=O)NC7=O)cc6F)CC5)CC4)c3)c3nccn23)c(F)cc1F (stereo not drawn)
2. Cc1cc(-c2cnc(Nc3cnn(C4CCN(CCN5CCN(c6cccc7c(C8CCC(=O)NC8=O)nn(C)c67)CC5)CC4)c3)c3nccn23)c(F)cc1F (stereo not drawn)

[out]
1. 24%
2. 25%

Consider the following items and state reported IRAK3 ePL degradation Ymin for each.
1. O=C1CCC(c2ccc(N3CCN(CCN4CCC(n5cc(Nc6ncc(C7CC7)n7ccnc67)cn5)CC4)CC3)cc2)C(=O)N1 (stereo not drawn)
2. Cc1cc(-c2cnc(Nc3cnn(C4CCN(CC(=O)N5CCN(c6ccc7c(c6)CN(C6CCC(=O)NC6=O)C7=O)CC5)CC4)c3)c3nccn23)c(F)cc1F (stereo not drawn)
3. Cc1cc(-c2cnc(Nc3cnn(C4CCN(CCN5CCN(c6ccc(C7CCC(=O)NC7=O)cc6)CC5)CC4)c3)c3nccn23)c(F)cc1F (stereo not drawn)
4. Cc1cc(-c2cnc(Nc3cnn([C@H]4CC[C@@H](CN5CCN(c6ccc(C7CCC(=O)NC7=O)cc6)CC5)CC4)c3)c3nccn23)c(F)cc1F (relative stereo)
5. Cc1cc(-c2cnc(Nc3cnn(C4CCN(CC(=O)N5CCN(c6ccc7c(c6)C(=O)N(C6CCC(=O)NC6=O)C7=O)CC5)CC4)c3)c3nccn23)c(F)cc1F (stereo not drawn)

[out]
1: 24%; 2: 22%; 3: 18%; 4: 29%; 5: 17%

Consider the following items and state reported IRAK3 ePL degradation Ymin for each.
1. Cc1cc(-c2cnc(Nc3cnn([C@@H]4CCN(CCN5CCN(c6ccc(C7CCC(=O)NC7=O)cc6)CC5)[C@H](C)C4)c3)c3nccn23)c(F)cc1F (stereo partly drawn)
2. Cc1cccc(-c2cnc(Nc3cnn(C4CCN(CCCCN5CCN(c6ccc(C7CCC(=O)NC7=O)cc6)CC5)CC4)c3)c3nccn23)c1 (stereo not drawn)

[out]
1. 24%
2. 15%
